Hello, the source for this data is patent US9890166B2, in case you need it.

pIC50: −log10 of the molar value.
BRD2 (His-Brd2(60-472)) (Homo sapiens (Human), UniProt P25440) pIC50 data
Sequence (P25440 60-472): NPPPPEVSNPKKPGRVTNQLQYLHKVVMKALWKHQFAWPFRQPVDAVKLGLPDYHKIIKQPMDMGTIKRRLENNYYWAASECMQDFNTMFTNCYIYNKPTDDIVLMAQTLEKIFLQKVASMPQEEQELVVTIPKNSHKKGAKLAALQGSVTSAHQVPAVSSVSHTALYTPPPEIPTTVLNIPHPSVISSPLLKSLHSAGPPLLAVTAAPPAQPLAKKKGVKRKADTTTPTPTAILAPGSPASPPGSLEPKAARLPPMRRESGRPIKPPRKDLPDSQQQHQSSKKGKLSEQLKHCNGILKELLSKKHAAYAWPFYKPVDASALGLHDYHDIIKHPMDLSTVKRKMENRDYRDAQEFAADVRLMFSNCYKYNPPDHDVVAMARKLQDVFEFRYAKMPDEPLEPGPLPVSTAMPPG

compound | pIC50
Cc1cc(N2C(=O)c3nc(C4=CCOCC4)n(C(C)C)c3C2c2ccc(Cl)cc2)cn2c(CF)nnc12 (stereo not shown) | 7.12
Cc1cc(N2C(=O)c3nc(C4CCN(C)CC4)n(C(C)C)c3C2c2ccc(Cl)cc2)cn2c(C)nnc12 (stereo not shown) | 7.55
Cc1cc(N2C(=O)c3nc(C4=CCN(C(=O)OCC(C)C)CC4)n(C(C)C)c3C2c2ccc(Cl)cc2)cn2c(C)nnc12 (stereo not shown) | 7.62
CCN1CC=C(c2nc3c(n2C(C)C)C(c2ccc(Cl)cc2)N(c2cc(C)c4nnc(C)n4c2)C3=O)CC1 (stereo not shown) | 7.11
COc1ncccc1-c1nc2c(n1C(C)C)[C@@H](c1ccc(Cl)cc1)N(c1cc(C)c3nnn(C)c3c1)C2=O | 7.89
Cc1cc(N2C(=O)c3nc(C4CCOCC4)n(C(C)C)c3C2c2ccc(Cl)cc2)nn2c(C)nnc12 (stereo not shown) | 7.47
COC(=O)N1CCC(c2nc3c(n2C(C)C)C(c2ccc(Cl)cc2)N(c2cc(C)c4nnc(C)n4c2)C3=O)CC1 (stereo not shown) | 7.01
